Values were extracted from patent US7772270B2.

biological target: catalytic domain of human neutrophilic collagenase (MMP-8) (Homo sapiens); construct: catalytic domain of human stromelysin (MMP-3) and neutrophilic collagenase (MMP-8); assay: Enzymatic activity of the catalytic domain of human neutrophilic collagenase (MMP-8), fluorogenic substrate; details: 15 min preincubation, pH 7.5, fluorescence 328/393 nm
Sequence (P22894 100-262 limits assumed): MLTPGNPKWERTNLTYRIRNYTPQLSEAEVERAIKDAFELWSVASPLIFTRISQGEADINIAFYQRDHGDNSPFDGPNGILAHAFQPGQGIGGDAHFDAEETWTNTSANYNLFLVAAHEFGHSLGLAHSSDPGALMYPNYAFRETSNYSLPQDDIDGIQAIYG
Catalogue of compounds with associated log10 IC50
// do not treat as linear: log10 of IC50, unit nM

Study these solved cases before continuing.
[
  {
    "Compound": "O=C(O)[C@H]1C[C@H]2CCC[C@H]2N1S(=O)(=O)c1ccc(-c2ccc(N3CCCC3)cc2)cc1 [Example 21]",
    "Test system": "catalytic domain of human neutrophilic collagenase (MMP-8) (Homo sapiens)",
    "Measurement name": "log10 IC50",
    "Measured number": 0.60
  },
  {
    "Compound": "O=C(NO)[C@H]1C[C@H]2CCC[C@H]2N1S(=O)(=O)c1ccc(-c2ccccc2)cc1 [Example 64]",
    "Test system": "catalytic domain of human neutrophilic collagenase (MMP-8) (Homo sapiens)",
    "Measurement name": "log10 IC50",
    "Measured number": 1.30
  },
  {
    "Compound": "O=C(NO)C1C[C@H]2CCC[C@H]2N1S(=O)(=O)c1ccc(-c2ccc(N3CCN(c4ccc(F)cc4)CC3)cc2)cc1 (single isomer, unassigned) [Example 63]",
    "Test system": "catalytic domain of human neutrophilic collagenase (MMP-8) (Homo sapiens)",
    "Measurement name": "log10 IC50",
    "Measured number": 3.57
  }
]

Query :: Requested read-out: log10 IC50. Entry: O=C(O)[C@H]1C[C@H]2CCC[C@H]2N1S(=O)(=O)c1ccc(-c2ccc(N3CCN(c4ccc(F)cc4)CC3)cc2)cc1 [Example 29]
Result :: 4.00

Query :: Which log10 IC50 value belongs to O=C(NO)[C@H]1C[C@H]2CCC[C@H]2N1S(=O)(=O)c1ccc(-c2ccc([N+](=O)[O-])cc2)cc1 [Example 61] ?
Result :: 0.48

Query :: Which log10 IC50 is listed for O=C(NO)[C@H]1C[C@H]2CCC[C@H]2N1S(=O)(=O)/C=C/c1ccccc1 [Example 57] ?
Result :: 2.51

Query :: Find the recorded log10 IC50 belonging to O=C(O)C1C[C@H]2CCC[C@H]2N1S(=O)(=O)CCc1ccc(-c2ccc(Br)cc2)cc1 (some centres unmarked) [Example 13] and report it.
Result :: 2.30

Query :: So what's the measured log10 IC50 for this one? O=C(NO)C1C[C@H]2CCC[C@H]2N1S(=O)(=O)c1ccc(I)cc1 (single isomer, unassigned) [Example 65]
Result :: 2.00
